assayDetails: reversal of MRP1-mediated doxorubicin resistance, pilot screen, H69AR cells, doxorubicin co-treatment (AID 601)
conditionContext: H69AR cells + 2 uM doxorubicin, CellTiter-Glo, 72 h; at 10 µM; hits give high values
Each entry below carries its reported differential viability (reversal).
Use % as the unit, but write only the number.

# annotated cases, reported differential viability (reversal) shown
• COc1ccc(N2C(=O)C(Cl)=C(N3CCCC3)C2=O)cc1 = 9.9
• CCOC(=O)c1oc2ccccc2c1NC(=O)c1cccc(OC)c1OC = -68.6
• O=C(O)Cc1ccc(-c2ccccc2)cc1 = -0.76
• O=C(CSc1nnnn1C1CCCC1)NCc1ccc2c(c1)OCO2 = 3.33
• COc1ccccc1C(O)P(=O)(OC(C)C)c1ccc(N(C)C)cc1 (stereo unspecified) = 11.6
• CCOC(=O)c1cc2c(=O)n3cccc(C)c3nc2n(CCOC)c1=NC(=O)c1ccncc1 = -10.1
• O=C1CCC(c2ccccc2)N1C(=O)c1cccnc1 (stereo unspecified) = 8.63
• Nc1nc2c(ncn2COCCO)c(=O)[nH]1 = 3.38
• O=C1NC(=O)C(c2ccccc2)(c2ccccc2)N1 = 7.3
• CCN1CCN(c2nc(-c3cccnc3)nc3ccccc23)CC1 = -2.89

Now for a further molecule.
In: What does the record list as differential viability (reversal) for CCOC(=O)N1CCC(NC(=O)C2CCC(Cn3c(=O)[nH]c4ccccc4c3=O)CC2)CC1 (stereo unspecified) ?
Out: -7.75

Provenance of the data: PubChem BioAssay
